Molecular target: B2 bradykinin receptor (Cavia porcellus)
Test: Inhibition of BK-induced (4x10E-8M) contraction of isolated guinea pig ileum (GPI)
ASSAY_METRIC: pEC50
pEC50 here: minus log base 10 of the concentration, concentration in moles per litre.

- COc1ccc(N(C)C(=O)CNC(=O)/C=C/c2ccc(C(F)(F)F)cc2)c(Cl)c1COc1cccc2ccc(C)nc12: 6.89
- COc1ccc(N(C)C(=O)CNC(=O)/C=C/c2ccc(NC(C)=O)nc2)c(SC)c1COc1cccc2ccc(C)nc12: 7.23
- COc1c(N(C)C(=O)CNC(=O)/C=C/c2ccc(C(F)(F)F)cc2)ccc(Cl)c1COc1cccc2ccc(C)nc12: 7.26
- C=C/C=C/C(=O)NCC(=O)N(C)c1ccc(Cl)c(COc2cccc3sc(C)nc23)c1Cl: 6.59
- Cc1ccc(/C=C/C(=O)NCC(=O)N(C)c2ccc(Cl)c(COc3cccc4scnc34)c2Cl)cc1: 5.89

Dear colleague, I am looking for the recorded pEC50 of the following compound: Cc1ccc2cccc(OCc3c(Cl)ccc(N(C)C(=O)CNC(=O)NCCCC(=O)O)c3C#N)c2n1 6.40

Now consider CCCOc1c(N(C)C(=O)CNC(=O)/C=C/c2ccc(C(F)(F)F)cc2)ccc(OC)c1COc1cccc2ccc(C)nc12 and answer again. 6.66

Now consider Cc1ccc(/C=C/C(=O)NCC(=O)N(C)c2ccc(Cl)c(COc3cccc4sc(-c5ccccc5)nc34)c2Cl)cc1 and answer again. 4.70

====

Target: UniProtKB O70526
Experiment: Inhibition of BK-induced (4x10E-8M) contraction of isolated guinea pig ileum (GPI)
Quick reference for pEC50 among some compounds
pEC50 here: minus log base 10 of the concentration, concentration in moles per litre.

• COc1cccc(/C=C/C(=O)NCC(=O)N(C)c2ccc(Cl)c(COc3cccc4ccc(C)nc34)c2C#N)c1 = 8.39
• CCNC(=O)NCC(=O)N(C)c1ccc(OC)c(COc2cccc3ccc(C)nc23)c1C#N = 6.35
• CCNC(=O)NCC(=O)N(C)c1ccc(Cl)c(COc2cccc3ccc(C)nc23)c1C#N = 6.54

Turning now to a further compound:
Dear colleague, I am looking for the recorded pEC50 of the following compound: Cc1ccc2cccc(OCc3c(Cl)ccc(N(C)C(=O)CNC(=O)/C=C/c4ccc(C(F)(F)F)cc4)c3C#N)c2n1 7.25

====

Test system: B2 bradykinin receptor, Oryctolagus cuniculus
Experiment: % Inhibition of BK-induced (4x10E-8M) contraction of rabbit jugular vein (RJV) at 10E-5 M concentration
Respond with Y for inhibition values of 80% and above, N for values below.

- COc1ccc(N(C)C(=O)CNC(=O)/C=C/c2ccc(NC(C)=O)nc2)c(SC)c1COc1cccc2ccc(C)nc12: Y
- CCNC(=O)NCC(=O)N(C)c1ccc(OC)c(COc2cccc3ccc(C)nc23)c1C#N: N
- COc1ccc(N(C)C(=O)CNC(=O)/C=C/c2cccc(C)c2)c(OC)c1COc1cccc2ccc(C)nc12: N
- COC(=O)CCCCC(=O)NCC(=O)N(C)c1ccc(OC)c(COc2cccc3ccc(C)nc23)c1SC: N
- Cc1ccc(/C=C/C(=O)NCC(=O)N(C)c2ccc(Cl)c(COc3cccc4scnc34)c2Cl)cc1: N

Does inhibition meet or surpass 80% for Cc1ccc(/C=C/C(=O)NCC(=O)N(C)c2ccc(Cl)c(COc3cccc4sc(-c5ccccc5)nc34)c2Cl)cc1 ? N

====

Quick reference for log10 EC50 among some compounds
Target: B2 bradykinin receptor (Cavia porcellus, UniProt O70526)
Experiment: Inhibition of BK-induced (4x10E-8M) contraction of isolated guinea pig ileum (GPI)
// stored as log10 of EC50 expressed in nM

Solved entries (count: 6):
* COC(=O)CCCCC(=O)NCC(=O)N(C)c1ccc(OC)c(COc2cccc3ccc(C)nc23)c1SC | 2.68
* COc1c(N(C)C(=O)CNC(=O)/C=C/c2ccc(C(F)(F)F)cc2)ccc(SC)c1COc1cccc2ccc(C)nc12 | 3.04
* Cc1ccc2cccc(OCc3c(Cl)ccc(N(C)C(=O)CNC(=O)NCCCCN)c3C#N)c2n1 | 2.54
* Cc1nc2c(OCc3c(Cl)ccc(N(C)C(=O)CNC(=O)/C=C/c4ccc(C(F)(F)F)cc4)c3Cl)cccc2s1 | 2.00
* COc1cccc(/C=C/C(=O)NCC(=O)N(C)c2ccc(Cl)c(COc3cccc4sc(C)nc34)c2Cl)c1 | 1.73
* COc1ccc(/C=C/C(=O)NCC(=O)N(C)c2ccc(SC)c(COc3cccc4ccc(C)nc34)c2SC)cc1 | 2.82

Turning now to a further compound:
Dear colleague, I am looking for the recorded log10 EC50 of the following compound: Cc1ccc(/C=C/C(=O)NCC(=O)N(C)c2ccc(Cl)c(COc3cccc4sc(C)nc34)c2Cl)cc1 1.36

====

Target: B2 bradykinin receptor (Cavia porcellus)
Sequence (O70526 whole entry): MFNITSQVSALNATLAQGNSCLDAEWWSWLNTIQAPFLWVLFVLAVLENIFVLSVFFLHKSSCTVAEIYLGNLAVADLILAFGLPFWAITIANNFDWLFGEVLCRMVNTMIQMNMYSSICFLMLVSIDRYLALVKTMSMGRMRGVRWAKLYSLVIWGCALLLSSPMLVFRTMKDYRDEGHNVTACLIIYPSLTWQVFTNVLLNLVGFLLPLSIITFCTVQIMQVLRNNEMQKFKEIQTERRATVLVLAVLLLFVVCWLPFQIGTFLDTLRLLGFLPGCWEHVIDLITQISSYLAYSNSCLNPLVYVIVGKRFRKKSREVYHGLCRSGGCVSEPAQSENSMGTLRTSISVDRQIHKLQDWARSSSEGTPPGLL
ASSAY_METRIC: IC50 (µM)
Write down the numeric answer in µM and omit the unit.

Solved entries (count: 2):
• Cc1ccc(/C=C/C(=O)NCC(=O)N(C)c2ccc(Cl)c(COc3cccc4sc(C)nc34)c2Cl)cc1 = 0.0142
• COc1ccc(N(C)C(=O)CNC(=O)/C=C/c2cccc(C)c2)c(OC)c1COc1cccc2ccc(C)nc12 = 0.0813

Dear colleague, I am looking for the recorded IC50 of the following molecule: Cc1ccc2cccc(OCc3c(C)ccc(N(C)C(=O)CNC(=O)/C=C/c4ccc(C(F)(F)F)cc4)c3C)c2n1 0.0118

Now consider COc1ccc(N(C)C(=O)CNC(=O)/C=C/c2ccc(C(F)(F)F)cc2)c(Cl)c1COc1cccc2ccc(C)nc12 and answer again. 0.0115

Now consider C=C/C=C/C(=O)NCC(=O)N(C)c1ccc(Cl)c(COc2cccc3sc(C)nc23)c1Cl and answer again. 0.0262

Now consider COc1cccc(/C=C/C(=O)NCC(=O)N(C)c2ccc(Cl)c(COc3cccc4sc(C)nc34)c2Cl)c1 and answer again. 0.0103

Now consider CCNC(=O)NCC(=O)N(C)c1ccc(OC)c(COc2cccc3ccc(C)nc23)c1C#N and answer again. 0.0538

Now consider COc1c(N(C)C(=O)CNC(=O)/C=C/c2ccc(C(F)(F)F)cc2)ccc(SC)c1COc1cccc2ccc(C)nc12 and answer again. 0.393

====

Quick reference for Ki among some compounds
Target protein (sequence): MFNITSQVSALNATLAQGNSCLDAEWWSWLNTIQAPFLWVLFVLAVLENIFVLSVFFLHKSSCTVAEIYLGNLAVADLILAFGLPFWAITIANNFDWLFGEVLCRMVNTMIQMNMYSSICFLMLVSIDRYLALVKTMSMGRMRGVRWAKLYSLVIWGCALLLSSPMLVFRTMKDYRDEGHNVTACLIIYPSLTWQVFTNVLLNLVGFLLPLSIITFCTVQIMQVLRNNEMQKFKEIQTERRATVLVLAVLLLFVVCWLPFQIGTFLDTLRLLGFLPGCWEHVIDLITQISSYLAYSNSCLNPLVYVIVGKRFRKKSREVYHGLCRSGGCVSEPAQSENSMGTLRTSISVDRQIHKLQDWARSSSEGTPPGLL
Write down the numeric answer in nM and omit the unit.

Solved entries (count: 3):
- Cc1nc2c(OCc3c(Cl)ccc(N(C)C(=O)CNC(=O)/C=C/c4ccco4)c3Cl)cccc2s1: 3.4
- Cc1ccc2cccc(OCc3c(Cl)ccc(N(C)C(=O)CNC(=O)/C=C/c4ccc(C(F)(F)F)cc4)c3C#N)c2n1: 0.3
- COc1ccc(N(C)C(=O)CNC(=O)/C=C/c2ccc(C(F)(F)F)cc2)c(Cl)c1COc1cccc2ccc(C)nc12: 1.3

Turning now to a further compound:
Dear colleague, I am looking for the recorded Ki of the following compound: COc1cccc(/C=C/C(=O)NCC(=O)N(C)c2ccc(Cl)c(COc3cccc4sc(C)nc34)c2Cl)c1 1.3

====

Target: B2 bradykinin receptor (Cavia porcellus)
Quick reference for pKi among some compounds
pKi here: minus log base 10 of the concentration, concentration in moles per litre.

• Cc1ccc(/C=C/C(=O)NCC(=O)N(C)c2ccc(Cl)c(COc3cccc4sc(-c5ccccc5)nc34)c2Cl)cc1 = 5.89
• CCCOc1c(N(C)C(=O)CNC(=O)/C=C/c2ccc(C(F)(F)F)cc2)ccc(OC)c1COc1cccc2ccc(C)nc12 = 8.41

Turning now to a further compound:
Dear colleague, I am looking for the recorded pKi of the following compound: Cc1ccc(/C=C/C(=O)NCC(=O)N(C)c2ccc(Cl)c(COc3cccc4scnc34)c2Cl)cc1 6.80
